# target-system: T1, human complement C2 (human, UniProt P06681 21-752)
# T1 construct: Recombinant full-length human C2 with C-terminal 8x His tag, purified from Expi293F supernatant; also called human C2; huC2
# T1 sequence: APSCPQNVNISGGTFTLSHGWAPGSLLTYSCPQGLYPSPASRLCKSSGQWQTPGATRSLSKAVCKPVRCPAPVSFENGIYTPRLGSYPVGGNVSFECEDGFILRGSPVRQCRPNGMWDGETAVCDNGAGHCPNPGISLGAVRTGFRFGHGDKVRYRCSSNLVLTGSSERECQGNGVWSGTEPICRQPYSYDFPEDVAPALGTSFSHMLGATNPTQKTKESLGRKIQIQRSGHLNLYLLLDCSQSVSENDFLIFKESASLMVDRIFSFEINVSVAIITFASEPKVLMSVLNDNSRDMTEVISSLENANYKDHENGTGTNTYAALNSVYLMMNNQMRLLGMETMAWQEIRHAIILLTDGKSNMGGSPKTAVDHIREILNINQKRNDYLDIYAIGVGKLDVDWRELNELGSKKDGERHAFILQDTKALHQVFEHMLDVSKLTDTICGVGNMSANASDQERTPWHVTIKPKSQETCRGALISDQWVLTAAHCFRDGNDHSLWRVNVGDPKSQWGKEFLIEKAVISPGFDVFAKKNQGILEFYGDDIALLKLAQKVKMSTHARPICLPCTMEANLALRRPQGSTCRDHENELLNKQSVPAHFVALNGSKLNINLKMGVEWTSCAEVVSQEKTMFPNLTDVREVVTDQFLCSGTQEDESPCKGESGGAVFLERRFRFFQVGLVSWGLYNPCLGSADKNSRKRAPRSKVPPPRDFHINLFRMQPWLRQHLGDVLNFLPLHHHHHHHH
# assay-protocol: SPR, mAb captured, C2 analyte, HBS-EP, pH 6.0
Please respond with reported Kd for every item in the list.
Express your answer in nM, writing the number without its unit.

Please fill in: Kd reported for RF16-242G (antibody, V domains shown, Germlined version of RF16-242) VH: EVQLVQSGAEVKKPGESLKISCKGSGYSFTSYWIGWVRQMPGKGLEWMGIIYPGDSDTRYSPSFQGQVTISADKSISTAYLQWSSLKASDTAMYYCARRGHYGDYFDYWGQGTLVTVSS VL: SYELTQPPSVSVSPGQTARITCSGDALPKKYAYWYQQKSGQAPVLVIYEDRRRPSGIPERFSGSSSGTMATLTISGAQVEDEADYYCYSRDRAGNQRVFGGGTQLTVLG = 14

Please fill in: Kd reported for RF16-191G (antibody, V domains shown) VH: EVQLLESGGGLVQPGGSLRLSCAASGFTFSKYWMGWVRQAPGKGLEWVSSIYSSGGWTYYADSVKGRFTISRDNSKNTLYLQMNSLRAEDTAVYYCARRPRSFSGSYYRAFDIWGQGTMVTVSS VL: DIQMTQSPSSLSASVGDRVTITCRASQSITDYLNWYQQKPGKAPKLLIYAASSLQSGVPSRFSGSGSGTDFTLTISSLQPEDFATYYCQQSYSSSITFGQGTRLDLKR = 13

Please fill in: Kd reported for RF16-214G (antibody, V domains shown) VH: EVQLLESGGGLVQPGGSLRLSCAASGFTFSWYQMMWVRQAPGKGLEWVSRIYPSGGGTAYADSVKGRFTISRDNSKNTLYLQMNSLRAEDTAVYYCARDAGYGDNWGQGTLVTVSS VL: SYELTQPPSVSVSPGQTASITCSGDKLGEKYASWYQQKPGQSPVLVIYQDRKRPSGIPERFSGSNSGNTATLTISGTQAMDEADYYCQAWDTRAVVFGGGTKLTVLG = 53.9

Please fill in: Kd reported for RF16-242 (antibody, V domains shown) VH: EVQLLQSGAEVKKPGESLKISCKGSGYSFTSYWIGWVRQMPGKGLEWMGIIYPGDSDTRYSPSFQGQVTISADKSISTAYLQWSSLKASDTAMYYCARRGHYGDYFDYWGQGTLVTVSS VL: SYELTQPPSVSVSPGQTARITCSGDALPKKYAYWYHQKSGQAPVLVIYEDRRRPSEIPERFSGSSSGTMATLTITGAQVEDEGVYFCYSRDRAGNQRVFGGGTQLTVLG = 16

Please fill in: Kd reported for RF16-191 (antibody, V domains shown, Human antibody from a phage display library) VH: EVQLLESGGGLVQPGGSLRLSCAASGFTFSKYWMGWVRQATGKGLEWVSSIYSSGGWTYYADSVKGRFTISRDNSKNTLYLQMNSLRAEDTAVYYCARRPRSFSGSYYRAFDIWGQGTMVTVSS VL: DIQMTQSPSSLSASVGDRVTITCRASQSITDYLNWYQQRPGKAPKLLIYAASSLQSGVPSRFSGSGSGTDFTLTISGLQPEDFATYYCQQSYSSSITFGQGTRLDLKR = 13

Please fill in: Kd reported for RF16-214 (antibody, V domains shown) VH: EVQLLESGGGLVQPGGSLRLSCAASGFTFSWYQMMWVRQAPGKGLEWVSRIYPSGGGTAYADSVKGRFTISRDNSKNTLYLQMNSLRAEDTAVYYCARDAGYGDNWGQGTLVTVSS VL: QSALTQPPSVSVSPGQTASITCSGDKLGEKYASWYQQKAGQSPVMVIYQDRKRPSGIPERFSGSNSGNTATLTISGTQAMDEADYYCQAWDTRAVVFGGGTKLTVLG = 148
